Taken from ChEMBL document CHEMBL1152577.

# System: Vero
# testProtocol: Cytotoxicity against african green monkey Vero cells after 72 hrs by MTT assay
# Format: cell-based
# experimentalConditions: Chlorocebus sabaeus
testReadout: IC50

INSERT INTO results (smilesnotation, measvalue) VALUES
  ('C(=C1/OCc2ccccc21)/c1ncnc2c1ncn2Cc1ccccc1', '17 µg/mL');

Provide the reported IC50 of each entry below, same order.
1. COc1ccc(Cn2cnc3c(/C=C4\OCc5ccccc54)nc(Cl)nc32)cc1
2. COc1ccc(Cn2cnc3c(-c4ccco4)nc(Cl)nc32)cc1
3. COc1ccc(Cn2cnc3c(-c4cc5ccccc5o4)nc(Cl)nc32)cc1
4. COc1ccc(Cn2cnc3c(/C=C/c4ccccc4)nc(Cl)nc32)cc1

Ans.
1: > 40 µg/mL; 2: > 40 µg/mL; 3: > 40 µg/mL; 4: > 40 µg/mL
